Assay system UniProtKB Q9GPQ4; read-out recorded as pKi.
Sequence (Q9GPQ4 whole entry): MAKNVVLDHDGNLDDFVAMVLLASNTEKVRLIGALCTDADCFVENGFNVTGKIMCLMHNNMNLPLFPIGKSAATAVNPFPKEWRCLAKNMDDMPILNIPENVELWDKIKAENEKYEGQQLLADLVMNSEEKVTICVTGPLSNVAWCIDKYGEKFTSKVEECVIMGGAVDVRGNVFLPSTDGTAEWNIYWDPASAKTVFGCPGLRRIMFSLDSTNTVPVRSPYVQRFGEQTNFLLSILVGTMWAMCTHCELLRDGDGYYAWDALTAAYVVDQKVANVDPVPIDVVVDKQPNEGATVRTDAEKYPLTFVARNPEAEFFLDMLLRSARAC
Numbers only, as −log10 of the molar value.

smiles.str	pKi
[N-]=[N+]=NCC[C@@H]1O[C@H](CO)[C@@H](O)[C@H]1O	2.25

With those in mind, consider the next compound.
Any idea what pKi was measured for "OC[C@H]1O[C@@H](CCn2nncc2-c2ccccc2)[C@H](O)[C@@H]1O" ?
3.17
